Attribution: patent US20150344457A1

target: PRMT5/MEP50 (Homo sapiens); construct: Expressed full-length human Flag-PRMT5/6His-MeP50 protein complex was purified; made in house; host or cells: Spodoptera frugiperda (SF9) insect cells, baculovirus (pDEST8); assay: PRMT5 Biochemical Assay (PRMT5/MEP50 enzyme assay on peptide substrate, 3H-SAM Flashplate); conditions: Table A-2; PRMT5/MEP50 4 nM, 3H-SAM 75 nM, peptide 40 nM; read-out: Biochemical IC50
Sequence (O14744 with tags, fused parts or gaps): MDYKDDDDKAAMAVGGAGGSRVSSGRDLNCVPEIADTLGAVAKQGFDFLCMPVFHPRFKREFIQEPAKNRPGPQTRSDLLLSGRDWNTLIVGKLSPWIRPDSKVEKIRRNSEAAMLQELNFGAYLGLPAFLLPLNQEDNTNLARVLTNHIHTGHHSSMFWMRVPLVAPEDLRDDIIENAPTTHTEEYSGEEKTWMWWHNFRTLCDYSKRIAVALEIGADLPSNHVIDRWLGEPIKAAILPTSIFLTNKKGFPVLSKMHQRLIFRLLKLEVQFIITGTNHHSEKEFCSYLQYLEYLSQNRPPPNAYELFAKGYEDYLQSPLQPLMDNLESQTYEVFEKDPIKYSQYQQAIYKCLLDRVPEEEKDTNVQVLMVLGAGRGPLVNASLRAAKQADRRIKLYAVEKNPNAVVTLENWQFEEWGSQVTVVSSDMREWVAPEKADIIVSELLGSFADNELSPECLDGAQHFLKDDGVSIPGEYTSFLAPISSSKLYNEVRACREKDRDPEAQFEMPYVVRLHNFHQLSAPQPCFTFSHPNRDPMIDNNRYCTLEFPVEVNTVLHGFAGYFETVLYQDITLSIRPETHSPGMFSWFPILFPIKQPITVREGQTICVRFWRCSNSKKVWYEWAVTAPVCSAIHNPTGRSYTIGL
Sequence (Q9BQA1 with tags, fused parts or gaps partner limits assumed): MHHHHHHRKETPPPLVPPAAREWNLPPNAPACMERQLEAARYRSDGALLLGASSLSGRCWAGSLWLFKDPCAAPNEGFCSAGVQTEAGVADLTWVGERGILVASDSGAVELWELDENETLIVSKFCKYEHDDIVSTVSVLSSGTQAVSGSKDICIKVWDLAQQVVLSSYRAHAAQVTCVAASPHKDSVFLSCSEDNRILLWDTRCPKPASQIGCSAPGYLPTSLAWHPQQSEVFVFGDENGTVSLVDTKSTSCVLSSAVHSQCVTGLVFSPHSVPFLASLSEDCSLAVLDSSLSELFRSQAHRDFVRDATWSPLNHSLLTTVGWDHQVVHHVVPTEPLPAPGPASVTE
pIC50: −log10 of the molar value.

compound	pIC50
CS(=O)(=O)Nc1cccc(OCC(=O)NCC(O)CN2CCc3ccccc3C2)c1 (stereo not drawn) [Compound A28]	> 7.00
CS(=O)(=O)c1ccccc1OCC(=O)NCC(O)CN1CCc2ccccc2C1 (stereo not drawn) [Compound A37]	> 7.00
CN(C)c1ncccc1OCC(=O)NCC(O)CN1CCc2ccccc2C1 (stereo not drawn) [Compound A127]	6.00 to 7.00
NS(=O)(=O)c1ccc(OCC(=O)NCC(O)CN2CCc3ccccc3C2)cc1 (stereo not drawn) [Compound A52]	5.00 to 6.00
CC(Oc1ccccc1)C(=O)NCC(O)CN1CCc2ccccc2C1 (stereo not drawn) [Compound A19]	> 7.00
O=C(COc1ccccc1N1CCOCC1)NC[C@@H](O)CN1CCc2ccccc2C1 [Compound A78]	6.00 to 7.00
O=C(COc1cccc2c1CCNC2)NCC(O)CN1CCc2ccccc2C1 (stereo not drawn) [Compound A91]	> 7.00
O=C(COc1ccccc1C1CCCNC1)NCC(O)CN1CCc2ccccc2C1 (stereo not drawn) [Compound A117]	6.00 to 7.00
O=C(COC1CCCCC1)NCC(O)CN1CCc2ccccc2C1 (stereo not drawn) [Compound A24]	6.00 to 7.00
